We begin with a simple list: items and their reported shrunken log2 fold change.
System: Escherichia coli TOP10
method description: shrunken log2 fold change of peptide-encoding DNA abundance (4.5 h post-induction vs induction); higher = less antimicrobial activity (less host growth inhibition)
experimental parameters: time post-induction: 4.5 h; library: site-saturation at positions 5, 18, 19, 20
# respond with the number and nothing more

Below, each entry is followed by its recorded shrunken log2 fold change result.
sequence: RRIRQRPPRLPRPRPRPGWQPRP
target under test: Escherichia coli TOP10
shrunken log2 fold change: -0.00211
--
sequence: RRIRRRPPRLPRPRPRPVMRPRP
target under test: Escherichia coli TOP10
shrunken log2 fold change: 0.714
--
sequence: RRIRDRPPRLPRPRPRPVMRPRP
target under test: Escherichia coli TOP10
shrunken log2 fold change: 0.592
--
sequence: RRIRVRPPRLPRPRPRPWCQPRP
target under test: Escherichia coli TOP10
shrunken log2 fold change: -0.187
--
sequence: RRIRWRPPRLPRPRPRPKCKPRP
target under test: Escherichia coli TOP10
shrunken log2 fold change: 0.0552
--
sequence: RRIRYRPPRLPRPRPRPCKVPRP
target under test: Escherichia coli TOP10
shrunken log2 fold change: -0.422
--
sequence: RRIRCRPPRLPRPRPRPNTQPRP
target under test: Escherichia coli TOP10
shrunken log2 fold change: -0.0903
--
sequence: RRIRKRPPRLPRPRPRPGICPRP
target under test: Escherichia coli TOP10
shrunken log2 fold change: 0.0428
--
sequence: RRIRKRPPRLPRPRPRPNSLPRP
target under test: Escherichia coli TOP10
shrunken log2 fold change: -0.00111
--
sequence: RRIRKRPPRLPRPRPRPGCYPRP
target under test: Escherichia coli TOP10
shrunken log2 fold change: 0.144

Prompt line: Fill in reported shrunken log2 fold change for this entry: RRIRDRPPRLPRPRPRPWRPPRP
Response line: 0.0967

Prompt line: Provide measured shrunken log2 fold change value, entry: RRIRTRPPRLPRPRPRPHRMPRP
Response line: -0.267

Prompt line: Fill in shrunken log2 fold change for record RRIRQRPPRLPRPRPRPGEPPRP
Response line: -0.00996

###

Test system: Escherichia coli TOP10
method description: shrunken log2 fold change of peptide-encoding DNA abundance (4.5 h post-induction vs induction); higher = less antimicrobial activity (less host growth inhibition)
experimental parameters: time post-induction: 4.5 h; library: site-saturation at positions 5, 18, 19, 20
Assign t whenever shrunken log2 fold change does not fall below -0.3; assign f whenever it does.

sequence: RRIRHRPPRLPRPRPRPDNNPRP
label: f
//
sequence: RRIRSRPPRLPRPRPRPIYNPRP
label: f
//
sequence: RRIRIRPPRLPRPRPRPNTKPRP
label: t
//
sequence: RRIRERPPRLPRPRPRPMNHPRP
label: f
//
sequence: RRIRPRPPRLPRPRPRPFCQPRP
label: t
//
sequence: RRIRNRPPRLPRPRPRPEPCPRP
label: t

// next entry
Prompt line: Threshold query (shrunken log2 fold change >= -0.3) on RRIRFRPPRLPRPRPRPYNRPRP
Response line: t

###

Test system: Escherichia coli TOP10;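 note: peptides expressed intracellularly from a pBAD plasmid library in pooled LB shake-flask culture, induced with 0.3% L-arabinose, DNA abundance read by NGS, three biological replicates, DESeq2 with apeglm shrinkage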
method description: shrunken log2 fold change of peptide-encoding DNA abundance (4.5 h post-induction vs induction); higher = less antimicrobial activity (less host growth inhibition)
experimental parameters: time post-induction: 4.5 h; library: site-saturation at positions 5, 18, 19, 20
Below is a list of entries, each paired with its recorded shrunken log2 fold change value.
Write the value as a bare number.

Some sequences with recorded shrunken log2 fold change:
sequence: RRIRVRPPRLPRPRPRPKTLPRP
value measured: -0.0985
--
sequence: RRIRRRPPRLPRPRPRPQHGPRP
value measured: 0.198
--
sequence: RRIRLRPPRLPRPRPRPECHPRP
value measured: 0.0679
--
sequence: RRIRGRPPRLPRPRPRPIIKPRP
value measured: 0.237
--
sequence: RRIRIRPPRLPRPRPRPLMWPRP
value measured: -0.115
--
sequence: RRIRQRPPRLPRPRPRPKDYPRP
value measured: -0.756

Prompt line: Name the recorded shrunken log2 fold change of the sequence listed here: RRIRLRPPRLPRPRPRPSDSPRP
Response line: -0.498

Prompt line: Could you please provide reported shrunken log2 fold change for RRIRRRPPRLPRPRPRPIRSPRP ? Thanks!
Response line: 0.022

Prompt line: Give the reported shrunken log2 fold change for this sequence. RRIRARPPRLPRPRPRPSHSPRP
Response line: -0.101

Prompt line: Please report the measured shrunken log2 fold change for RRIRNRPPRLPRPRPRPVCKPRP
Response line: -0.0239

Prompt line: For the sequence RRIRLRPPRLPRPRPRPIKGPRP , give its reported shrunken log2 fold change.
Response line: -0.106

Prompt line: Provide one value: measured shrunken log2 fold change of RRIRTRPPRLPRPRPRPQGSPRP
Response line: -0.0161
